FYI, the data here is from PubChem BioAssay AID463190.

- Test Protocol: growth inhibitors of tim10-1 mutant yeast, primary screen, luminescence, uHTS (AID 463190);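 note: mutant grown at 25 °C; 0% = DMSO wells with yeast and 100% = wells holding no yeast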
- Experimental Conditions: S. cerevisiae tim10-1 ts strain growth, BacTiter-Glo, 24 h; at 20 µM; active compounds read high
Screen size: about 330,000 compounds; about 7,300 (2.2%) were called active. The list comes from a sample in which actives are over-represented; it also holds close analogues and randomly drawn compounds.
Consider the following compounds; for each one, report its inhibition.
Your answer is read as %, so omit the unit and give the number.

For this compound ( O=C(CCl)Nc1cccc(CP(=O)(c2ccccc2)c2ccccc2)c1 ), measured inhibition is 9.52

Value of measured inhibition for the entry COC(=O)c1cc(NC(=O)CC2C(=O)NCCN2C(=O)c2ccc(F)cc2)cc(C(=O)OC)c1 (stereo unspecified) : -15.9

Reported inhibition ( NS(=O)(=O)c1ccc(N=Nc2c(O)[nH]c3ccc(Br)cc23)cc1 ) = -13

Entry O=C(O)C1CCCN1S(=O)(=O)c1ccc(Br)cc1 (stereo unspecified) ; inhibition = -5.99

The recorded inhibition for entry O=C(CSc1nccn1-c1cccc(F)c1)NC1CCCC1 equals -5.65

Briefly, inhibition measured for COc1cccc(CNCc2ccc3c(c2)OCO3)c1 : -13

For record O=C(O)c1cccnc1Sc1ncnc2sc3c(c12)CCC3 the listed inhibition is -4.59

Noted for CS(=O)(=O)c1sc2nc(-c3ccccc3)cc(-c3ccccc3)c2c1N : its inhibition reads 49.2

Given item Cc1cccc(N=Nc2c(O)[nH]c3ccc(F)cc23)c1 , the value recorded as its inhibition is 43.6

# inhibition of COc1ccc(NC(=O)CN(C)C(=O)CNC(=O)C2CCCCC2)cc1 = 3.37

compound CCOc1ccc(NS(=O)(=O)c2cc(C)c(C)cc2C)cc1 , inhibition observed: 1.28

---

For each of the molecules below, state its inhibition.
- Test Protocol: growth inhibitors of tim10-1 mutant yeast, primary screen, luminescence, uHTS (AID 463190);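 note: mutant grown at 25 °C; 0% = DMSO wells with yeast and 100% = wells holding no yeast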
- Experimental Conditions: S. cerevisiae tim10-1 ts strain growth, BacTiter-Glo, 24 h; at 20 µM; active compounds read high
Screen size: about 330,000 compounds; about 7,300 (2.2%) were called active. The full list was thinned out, with actives kept by preference.
Supply the numeric figure in %, leaving out any unit text.

# inhibition (molecule: Cc1ccc(C(=O)CCC(=O)N(C)CC(=O)Nc2c(Cl)cccc2Cl)cc1 ) is 97.9

The reported value for CCOC(=O)c1nnn(-c2nonc2-n2cccc2)c1CN1CCOCC1 in terms of inhibition is 23.2

// recorded inhibition for CCCCCCCCCCCCCCCC(=O)OC/C=C(C)/C=C/C=C(C)/C=C/C1=C(C)CCCC1(C)C : 40.7

Noted for COc1c(C)c2c(c(O)c1C/C=C(\C)CCC(=O)O)C(=O)OC2 : its inhibition reads 4.45

Recorded inhibition (molecule CCCCNC(=O)C(C)N(CCN(C)C)C(=O)CCCN1C(=O)NC(c2ccc(Cl)cc2)C(C(=O)OCc2ccccc2)=C1C (stereo not given) ): 6.33

Memo: CC(=O)O[C@H]1c2ccccc2-c2ccccc2[C@@H]1OC(C)=O , reported inhibition: 4.4

Record COCCN(Cc1ccccc1)C(=O)Cc1ccc(S(=O)(=O)N2CCOCC2)s1 , field inhibition: 18.8

Consider CC(=O)Oc1ccc2c(=O)oc(-c3ccc([N+](=O)[O-])cc3)nc2c1 . Its measured inhibition is 22.6

Item: O=C(NCCc1ccccc1)Oc1ccc(Cl)cc1 | inhibition: 13.9

inhibition reported for this molecule COC(=O)c1ccccc1NC(=O)C1CC(=O)N(c2ccc(OC)cc2)C1 (stereo not given) : 3.6
